src = patent US20260258115A1

molecular target: T1, RSV prefusion F (preF), subtype B (respiratory syncytial virus subtype B); experiment: BLI, IgG
T1 construct: also called Prefusion subtype B
Measured Kd by item

[
  {
    "Binder": "ADI-25555 (antibody, V domains shown, full-length IgG) VH: QVQLVQSGGGLVKPGGSLRLSCAASGFTFSSYSMNWVRQAPGKGLEWVSSISSSSSYIYYADSVKGRFTISRDNAKNSLYLQMNSLRAEDTAVYYCARQRGGIAVAGTYFDLWGRGTLVTVSS VL: QPVLTQPPSVSGAPGQRVTISCTGSSSNIGAGYDVHWYQQLPGTAPKLLIYGNSNRPSGVPDRFSGSKSGTSASLAITGLQAEDEADYYCQSYDSTVVFGGGTKLTVL",
    "Kd / nM": 44.7
  },
  {
    "Binder": "ADI-19505 (antibody, V domains shown, full-length IgG) VH: QVQLVQSGAEVKKPGESLKISCKGSGYSFTNYWIGWVRQMPGKGLEWMGITYPGDSDTRYSPSFQGQVTISADKSISTAHLQWDSLKASDTAMYYCARLRCTGSICYDAFDIWGQGTTVTVSS VL: SYVLTQPLSVSVALGQTARITCGGNNIGSKNVHWYQQKPGQAPVLVIYRDNNRPSGIPERFSGSNSGNTATLTISRAQAGDEADYYCQVWDSSTGGDVFGAGTKVTVL",
    "Kd / nM": 44.4
  },
  {
    "Binder": "ADI-14346 (antibody, V domains shown, full-length IgG; also called Ab 14) VH: EVQLLESGGGLVKPGGSLRLSCAASGFRFSSYSMNWVRQAPGKWLEWVSSISASSSYTDYADSVKGRFTISRDNAKNSLYLQMNSLRAEDTAVYYCAREDYLSSGSLLHWFDPWGQGTLVTVSS VL: QPVLTQPPSVSGAPGQRVTISCTGSSSNIGAGYDVHWYQQLPGTAPKLLIYGNNNRPSGVPDRFSGSKSGTSASLAITGLQAEDEADYYCQSYDSRLSVLFGGGTKVTVL",
    "Kd / nM": 0.925
  }
]
